# test details: MTS assay, NIH 3T3 cells
# Format: cell-based, mouse
# condition description: mouse, NIH 3T3 fibroblast cells
Numbered stars: 1 amine (or outer) side, 2 acyl side, 3 side chain; on linkers, the order of the positions; unused ones are H or OH. Square brackets hold non-standard residues; d marks the D form. Peptide text beside a SMILES is read from it. X1 = CC(C)[C@H](C)N(CC(=O)[*:2])[*:1]; Nspe = C[C@H](NCC(=O)O)c1ccccc1; Nphe = O=C(O)CNCc1ccccc1; Nlys = NCCCCNCC(=O)O
outcome measure: CC50 at 3 h (µM)
Express the result in µM but write the number alone.

Worked examples follow.
{"molecule": "C[C@H](NCC(=O)N(CCCCN)CC(=O)N(CC(=O)N(CCCCN)CC(=O)N(CCCCN)CC(=O)N(CC(=O)N(CC(=O)N(CCCCN)CC(=O)N(CC(=O)N(CCCCN)CC(=O)N(CCCCN)CC(=O)N(CC(N)=O)[C@@H](C)c1ccccc1)[C@@H](C)c1ccccc1)[C@@H](C)c1ccccc1)[C@@H](C)c1ccccc1)[C@@H](C)c1ccccc1)c1ccccc1 [1B12 mer-Nlys4,10, H-(Nspe-Nlys-Nspe-Nlys-Nlys-Nspe)2-NH2] (H-[Nspe][Nlys][Nspe][Nlys][Nlys][Nspe][Nspe][Nlys][Nspe][Nlys][Nlys][Nspe]-NH2)", "result unit": "µM", "value": 83}
{"molecule": "C[C@@H](c1ccccc1)N(CC(N)=O)C(=O)CN(C(=O)CN(CCCCN)C(=O)CN(Cc1ccccc1)C(=O)CN(Cc1ccccc1)C(=O)CN(CCCCN)C(=O)CN(C(=O)CN(C(=O)CN(CCCCN)C(=O)CN(Cc1ccccc1)C(=O)CN(Cc1ccccc1)C(=O)CNCCCCN)[C@@H](C)c1ccccc1)[C@@H](C)c1ccccc1)[C@@H](C)c1ccccc1", "result unit": "µM", "value": 15}
{"molecule": "C[C@@H](c1ccccc1)N(CC(=O)N(CCCCN)CC(=O)N(CC(=O)N(CC(=O)N(CCCCN)CC(=O)N(CC(=O)N(CC(=O)N(CCCCN)CC(N)=O)[C@@H](C)c1ccccc1)[C@@H](C)c1ccccc1)[C@@H](C)c1ccccc1)[C@@H](C)c1ccccc1)C(=O)CN(C(=O)CNCCCCN)[C@@H](C)c1ccccc1 [110 mer, H-(Nlys-Nspe-Nspe)3-Nlys-NH2] (H-[Nlys][Nspe][Nspe][Nlys][Nspe][Nspe][Nlys][Nspe][Nspe][Nlys]-NH2)", "result unit": "µM", "value": 54}
{"molecule": "CC(C)[C@H](C)N(CC(=O)N(CC(=O)N(CCCCN)CC(=O)N(CC(=O)N(CC(=O)N(CCCCN)CC(=O)N(CC(=O)N(CC(=O)N(CCCCN)CC(=O)N(CC(=O)N(CC(N)=O)[C@@H](C)c1ccccc1)[C@@H](C)C(C)C)[C@@H](C)c1ccccc1)[C@@H](C)C(C)C)[C@@H](C)c1ccccc1)[C@@H](C)C(C)C)[C@@H](C)c1ccccc1)C(=O)CNCCCCN [1-Nsdp2,5,8,11, H-(Nlys-Nsdp-Nspe)4-NH2] (H-[Nlys][X1][Nspe][Nlys][X1][Nspe][Nlys][X1][Nspe][Nlys][X1][Nspe]-NH2)", "result unit": "µM", "value": 20}
{"molecule": "C[C@H](NCC(=O)N(CCCCN)CC(=O)N(CC(=O)N(CC(=O)N(CCCCN)CC(=O)N(CC(=O)N(CC(=O)N(CCCCN)CC(=O)N(CC(=O)N(CC(=O)N(CCCCN)CC(=O)N(CC(N)=O)[C@@H](C)c1ccccc1)[C@@H](C)c1ccccc1)[C@@H](C)c1ccccc1)[C@@H](C)c1ccccc1)[C@@H](C)c1ccccc1)[C@@H](C)c1ccccc1)[C@@H](C)c1ccccc1)c1ccccc1 [1B, H-(Nspe-Nlys-Nspe)4-NH2] (H-[Nspe][Nlys][Nspe][Nspe][Nlys][Nspe][Nspe][Nlys][Nspe][Nspe][Nlys][Nspe]-NH2)", "result unit": "µM", "value": 4.9}

Which value of CC50 at 3 h has been reported for C[C@@H](c1ccccc1)N(CC(N)=O)C(=O)CN(C(=O)CN(CCCCN)C(=O)CN(C(=O)CN(C(=O)CN(CCCCN)C(=O)CN(C(=O)CN(C(=O)CN(CCCCN)C(=O)[C@@H]1CCCN1C(=O)CN(C(=O)CNCCCCN)[C@@H](C)c1ccccc1)[C@@H](C)c1ccccc1)[C@@H](C)c1ccccc1)[C@@H](C)c1ccccc1)[C@@H](C)c1ccccc1)[C@@H](C)c1ccccc1 [1-Pro3, H-Nlys-Nspe-L-Pro-(Nlys-Nspe-Nspe)3-NH2] (H-[Nlys][Nspe]P[Nlys][Nspe][Nspe][Nlys][Nspe][Nspe][Nlys][Nspe][Nspe]-NH2) in the records?
12

Also C[C@@H](c1ccccc1)N(CC(N)=O)C(=O)CN(Cc1ccccc1)C(=O)CN(CCCCN)C(=O)CN(C(=O)CN(Cc1ccccc1)C(=O)CN(CCCCN)C(=O)CN(C(=O)CN(Cc1ccccc1)C(=O)CN(CCCCN)C(=O)CN(C(=O)CN(Cc1ccccc1)C(=O)CNCCCCN)[C@@H](C)c1ccccc1)[C@@H](C)c1ccccc1)[C@@H](C)c1ccccc1 [1-Npm2,5,8,11, H-(Nlys-Npm-Nspe)4-NH2] (H-[Nlys][Nphe][Nspe][Nlys][Nphe][Nspe][Nlys][Nphe][Nspe][Nlys][Nphe][Nspe]-NH2) ?
6.8

Also C[C@@H](c1ccccc1)N(CC(N)=O)C(=O)CN(C(=O)CN(CCCCN)C(=O)[C@@H]1CCCN1C(=O)CN(C(=O)CN(CCCCN)C(=O)CN(C(=O)CN(C(=O)CN(CCCCN)C(=O)[C@@H]1CCCN1C(=O)CN(C(=O)CNCCCCN)[C@@H](C)c1ccccc1)[C@@H](C)c1ccccc1)[C@@H](C)c1ccccc1)[C@@H](C)c1ccccc1)[C@@H](C)c1ccccc1 [1-Pro3,9, H-(Nlys-Nspe-L-Pro-Nlys-Nspe-Nspe)2-NH2] (H-[Nlys][Nspe]P[Nlys][Nspe][Nspe][Nlys][Nspe]P[Nlys][Nspe][Nspe]-NH2) ?
71

---

# test details: MTS assay, NIH 3T3 cells
# Format: cell-based, mouse
# condition description: mouse, NIH 3T3 fibroblast cells
Square brackets hold non-standard residues; d marks the D form. Peptide text beside a SMILES is read from it. Nspe = C[C@H](NCC(=O)O)c1ccccc1; Nlys = NCCCCNCC(=O)O
Examples of compounds with documented CC50 at 3 h follow.
Express the result in µM but write the number alone.

{"compound": "C[C@@H](c1ccccc1)N(CC(N)=O)C(=O)CN(C(=O)CN(CCCCN)C(=O)[C@@H]1CCCN1C(=O)CN(C(=O)CN(CCCCN)C(=O)CN(C(=O)CN(C(=O)CN(CCCCN)C(=O)CN(C(=O)CN(C(=O)CNCCCCN)[C@@H](C)c1ccccc1)[C@@H](C)c1ccccc1)[C@@H](C)c1ccccc1)[C@@H](C)c1ccccc1)[C@@H](C)c1ccccc1)[C@@H](C)c1ccccc1 [1-Pro9] (H-[Nlys][Nspe][Nspe][Nlys][Nspe][Nspe][Nlys][Nspe]P[Nlys][Nspe][Nspe]-NH2)", "result unit": "µM", "CC50 at 3 h": 24}

With those in mind, consider the next compound.
Which value of CC50 at 3 h has been reported for C[C@@H](c1ccccc1)N(CC(N)=O)C(=O)CN(CCCCN)C(=O)CN(CCCCN)C(=O)CN(C(=O)CN(C(=O)CN(CCCCN)C(=O)CN(C(=O)CN(CCCCN)C(=O)CN(CCCCN)C(=O)CN(C(=O)CN(C(=O)CNCCCCN)[C@@H](C)c1ccccc1)[C@@H](C)c1ccccc1)[C@@H](C)c1ccccc1)[C@@H](C)c1ccccc1)[C@@H](C)c1ccccc1 [1-Nlys5,11, H-(Nlys-Nspe-Nspe-Nlys-Nlys-Nspe)2-NH2] (H-[Nlys][Nspe][Nspe][Nlys][Nlys][Nspe][Nlys][Nspe][Nspe][Nlys][Nlys][Nspe]-NH2) in the records?
85

---

Examples of compounds with documented HD10 follow.
# Tested on: human erythrocytes
# test details: Hemolysis assay
# Format: cell-based
Square brackets hold non-standard residues; d marks the D form. Peptide text beside a SMILES is read from it. Nspe = C[C@H](NCC(=O)O)c1ccccc1; Nlys = NCCCCNCC(=O)O

{"compound": "C[C@H](NCC(=O)N(CC(=O)N(CCCCN)CC(=O)N(CC(=O)N(CC(=O)N(CCCCN)CC(=O)N(CC(=O)N(CC(=O)N(CCCCN)CC(=O)N(CC(=O)N(CC(=O)N(CCCCN)CC(N)=O)[C@@H](C)c1ccccc1)[C@@H](C)c1ccccc1)[C@@H](C)c1ccccc1)[C@@H](C)c1ccccc1)[C@@H](C)c1ccccc1)[C@@H](C)c1ccccc1)[C@@H](C)c1ccccc1)c1ccccc1 [1C, H-(Nspe-Nspe-Nlys)4-NH2] (H-[Nspe][Nspe][Nlys][Nspe][Nspe][Nlys][Nspe][Nspe][Nlys][Nspe][Nspe][Nlys]-NH2)", "value": "25 µM"}
{"compound": "C[C@H](NCC(=O)N(CCCCN)CC(=O)N(CC(=O)N(CC(=O)N(CCCCN)CC(=O)N(CC(=O)N(CC(=O)N(CCCCN)CC(=O)N(CC(=O)N(CC(=O)N(CCCCN)CC(=O)N(CC(N)=O)[C@@H](C)c1ccccc1)[C@@H](C)c1ccccc1)[C@@H](C)c1ccccc1)[C@@H](C)c1ccccc1)[C@@H](C)c1ccccc1)[C@@H](C)c1ccccc1)[C@@H](C)c1ccccc1)c1ccccc1 [1B, H-(Nspe-Nlys-Nspe)4-NH2] (H-[Nspe][Nlys][Nspe][Nspe][Nlys][Nspe][Nspe][Nlys][Nspe][Nspe][Nlys][Nspe]-NH2)", "value": "55 µM"}
{"compound": "C[C@@H](c1ccccc1)N(CC(N)=O)C(=O)CN(C(=O)CN(CCCCN)C(=O)CN(C(=O)CN(C(=O)CNCCCCN)[C@@H](C)c1ccccc1)[C@@H](C)c1ccccc1)[C@@H](C)c1ccccc1 [16 mer, H-(Nlys-Nspe-Nspe)2-NH2] (H-[Nlys][Nspe][Nspe][Nlys][Nspe][Nspe]-NH2)", "value": ">200/>200 μM"}
{"compound": "C[C@@H](c1ccccc1)N(CC(=O)N(CCCCN)CC(=O)N(CC(=O)N(CC(=O)N(CCCCN)CC(=O)N(CC(=O)N(CC(=O)N(CCCCN)CC(N)=O)[C@@H](C)c1ccccc1)[C@@H](C)c1ccccc1)[C@@H](C)c1ccccc1)[C@@H](C)c1ccccc1)C(=O)CN(C(=O)CNCCCCN)[C@@H](C)c1ccccc1 [110 mer, H-(Nlys-Nspe-Nspe)3-Nlys-NH2] (H-[Nlys][Nspe][Nspe][Nlys][Nspe][Nspe][Nlys][Nspe][Nspe][Nlys]-NH2)", "value": "> 200 µM"}

With those in mind, consider the next compound.
Checklist item: HD10 tested on human erythrocytes, entry C[C@@H](c1ccccc1)N(CC(N)=O)C(=O)CN(C(=O)CN(CCCCN)C(=O)CN(C(=O)CN(C(=O)CN(CCCCN)C(=O)[C@@H]1CCCN1C(=O)CN(C(=O)CN(CCCCN)C(=O)CN(C(=O)CN(C(=O)CNCCCCN)[C@@H](C)c1ccccc1)[C@@H](C)c1ccccc1)[C@@H](C)c1ccccc1)[C@@H](C)c1ccccc1)[C@@H](C)c1ccccc1)[C@@H](C)c1ccccc1 [1-Pro6] (H-[Nlys][Nspe][Nspe][Nlys][Nspe]P[Nlys][Nspe][Nspe][Nlys][Nspe][Nspe]-NH2) , value?
83 µM
